# IC50 per entry
target: PD-1/PD-L1 protein/protein interaction (Homo sapiens (Human), UniProt Q9NZQ7); assay: PD-1/PD-L1 Homogeneous Time-Resolved Fluorescence (HTRF) Binding Assay; conditions: recombinant human PD-L1 (19-238) His-tag, human PD-1 (25-167) Fc tag; 25° C., PBS pH 7.4
Sequence (Q9NZQ7 19-238): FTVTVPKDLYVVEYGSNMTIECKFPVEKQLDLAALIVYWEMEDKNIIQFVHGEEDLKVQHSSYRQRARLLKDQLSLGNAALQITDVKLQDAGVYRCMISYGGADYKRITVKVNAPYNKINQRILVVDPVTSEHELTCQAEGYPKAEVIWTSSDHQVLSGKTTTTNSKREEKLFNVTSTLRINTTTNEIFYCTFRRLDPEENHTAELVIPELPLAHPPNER

>  <molecule>
Cc1c(-c2ccccc2)cccc1-c1nc2c(s1)CN(CCCC(=O)O)CC2

>  <IC50>
≤ 100 nM

$$$$
>  <molecule>
Cc1c(-c2ccccc2)cccc1-c1nc2c(s1)CN(C1CCC(C(=O)O)CC1)CC2 (stereo not drawn)

>  <IC50>
≤ 100 nM

$$$$
>  <molecule>
N#Cc1c(-c2ccc3c(c2)OCCO3)ccnc1-c1nc2c(s1)CNCC2

>  <IC50>
100 to 500 nM

$$$$
>  <molecule>
Cc1c(-c2ccccc2)cccc1-c1nc2c(o1)CNCC2

>  <IC50>
≤ 100 nM

$$$$
>  <molecule>
Cc1c(-c2ccccc2)cccc1-n1cc2c(n1)CNCC2

>  <IC50>
≤ 100 nM

$$$$

Exercise: Tell us which IC50 value is on record for Cc1c(-c2ccccc2)cccc1-c1nc2c(s1)CN(C)CC2
Solution: ≤ 100 nM

Exercise: Give a short answer stating reported IC50 for Cc1c(-c2ccccc2)cccc1-c1nc2c(s1)CN(C[C@@H]1C[C@H]1C(=O)O)CC2 (relative stereo) .
Solution: 100 to 500 nM

Exercise: Output measured IC50 for this item: Cc1c(-c2ccccc2)cccc1-c1cc2n(n1)CCNC2
Solution: 100 to 500 nM

Exercise: Look up IC50 of Cc1c(-c2ccccc2)cccc1-c1nc2c(s1)CN(C1CCOCC1)CC2 and report it.
Solution: 100 to 500 nM

Exercise: Query IC50 for Cc1c(-c2ccccc2)cccc1-c1nc2c(s1)CNCC2
Solution: ≤ 100 nM

Exercise: Return the recorded IC50 value; entry: Cc1c(-c2ccccc2)cccc1-c1nc2c(o1)CCN(C)C2
Solution: ≤ 100 nM

----------
Listed compounds paired with reported IC50
target: PD-1/PD-L1 protein/protein interaction (Homo sapiens (Human)); assay: PD-1/PD-L1 Homogeneous Time-Resolved Fluorescence (HTRF) Binding Assay; details: recombinant human PD-L1 (19-238) His-tag, human PD-1 (25-167) Fc tag; 25° C., PBS pH 7.4

>  <compound>
Cc1c(-c2ccccc2)cccc1-c1nc2c(s1)CN(CCO)CC2

>  <measured-on>
PD-1/PD-L1 protein/protein interaction (Homo sapiens (Human))

>  <IC50>
≤ 0.1 µM

$$$$

Exercise: Print PD-1/PD-L1 protein/protein interaction (Homo sapiens (Human)) IC50 for Cc1c(-c2ccccc2)cccc1-c1nc2c(s1)CN(C1CCC(CC#N)CC1)CC2 (stereo not shown) .
Solution: 0.1 to 0.5 µM

Exercise: Determine reported IC50 for Cc1c(-c2ccccc2)cccc1-c1nc2c(o1)CCNC2 ; test system: PD-1/PD-L1 protein/protein interaction (Homo sapiens (Human)).
Solution: ≤ 0.1 µM

----------
target: PD-1/PD-L1 protein/protein interaction (Homo sapiens (Human), UniProt Q9NZQ7); assay: PD-1/PD-L1 Homogeneous Time-Resolved Fluorescence (HTRF) Binding Assay; settings: recombinant human PD-L1 (19-238) His-tag, human PD-1 (25-167) Fc tag; 25° C., PBS pH 7.4
measurement-type: IC50

>  <smiles-record>
Cc1c(-c2nc3c(s2)CNCC3)ccnc1-c1ccc2c(c1)OCCO2

>  <measurement-type>
IC50

>  <result-value>
0.5 to 10 µM

$$$$
>  <smiles-record>
Cc1c(-c2cccc(C(N)=O)c2)cccc1-c1nc2c(s1)CNCC2

>  <measurement-type>
IC50

>  <result-value>
≤ 0.1 µM

$$$$
>  <smiles-record>
COc1cccc(-c2cccc(-c3nc4c(s3)CNCC4)c2C)c1

>  <measurement-type>
IC50

>  <result-value>
≤ 0.1 µM

$$$$
>  <smiles-record>
Cc1c(-c2cccc(OCCO)c2)cccc1-c1nc2c(s1)CNCC2

>  <measurement-type>
IC50

>  <result-value>
0.1 to 0.5 µM

$$$$
>  <smiles-record>
Cc1c(-c2nc3c(s2)CNCC3)cccc1-c1cccc2c1cnn2C

>  <measurement-type>
IC50

>  <result-value>
≤ 0.1 µM

$$$$
>  <smiles-record>
Cc1c(-c2ccccc2)cccc1-c1nc2c(s1)CNCC2(C)C

>  <measurement-type>
IC50

>  <result-value>
0.5 to 10 µM

$$$$
>  <smiles-record>
COc1cccc(-c2ccnc(-c3nc4c(s3)CNCC4)c2C)c1

>  <measurement-type>
IC50

>  <result-value>
≤ 0.1 µM

$$$$
>  <smiles-record>
Cc1c(-c2ccccc2)ccnc1-c1nc2c(s1)CNCC2

>  <measurement-type>
IC50

>  <result-value>
≤ 0.1 µM

$$$$
>  <smiles-record>
Cc1c(-c2ccccc2)cccc1-c1nc2c(s1)CCNC2

>  <measurement-type>
IC50

>  <result-value>
0.5 to 10 µM

$$$$

Query molecule follows.
Exercise: State its IC50 for this molecule: Cc1c(-c2ccccc2)cccc1-c1nc2c(s1)CN(C[C@H](C)O)CC2
Solution: ≤ 0.1 µM
